Test: log P determination by reversed-phase HPLC (EEC Directive 79/831 Annex V.A8; acidic or neutral mobile phase)
Assay type: physicochemical
Conditions: HPLC, reversed-phase C 18, 43° C.; mobile phase range not marked
# logP (HPLC, mobile phase not marked) per record follows
measured_parameter: logP (HPLC, mobile phase not marked)

[[record]]
entry_smiles = "CCn1ncc(C(=O)c2ccc(S(C)(=O)=O)c(CN(OC)C(C)C)c2Cl)c1O"
observed = 2.52

[[record]]
entry_smiles = "CON(Cc1ccccc1)Cc1c(S(C)(=O)=O)ccc(C(=O)c2cnn(C)c2O)c1Cl"
observed = 2.48

[[record]]
entry_smiles = "CON(Cc1c(S(C)(=O)=O)ccc(C(=O)c2cnn(C)c2O)c1Cl)C(C)C"
observed = 2.16

[[record]]
entry_smiles = "CCN(Cc1c(S(C)(=O)=O)ccc(C(=O)c2cnn(C)c2O)c1Cl)OC"
observed = 1.84


====

Assay: log P determination by reversed-phase HPLC (EEC Directive 79/831 Annex V.A8; acidic or neutral mobile phase)
Type: physicochemical
Details: reversed-phase C18 HPLC column; HPLC reversed-phase C18, 43° C.; acidic range: 0.1% aqueous phosphoric acid, acetonitrile gradient (marked a)); read-out: logP
measured_parameter: chromatographic logP

[[record]]
entry_smiles = "CCn1ncc(C(=O)c2ccc(Cl)c(OCCNS(=O)(=O)CC)c2Cl)c1O"
measured_parameter = "chromatographic logP"
observed = 1.86


====

Test: log P determination by reversed-phase HPLC (EEC Directive 79/831 Annex V.A8; acidic or neutral mobile phase)
Type: physicochemical
Details: HPLC, reversed-phase C 18, 43° C.; acidic range: 0.1% aqueous phosphoric acid, acetonitrile (marked a) or acidic)
measured_parameter: log P (acidic)

[[record]]
compound = "COC(=O)c1ccc(S(C)(=O)=O)c(CNOCCOc2ccccc2)c1Cl"
observed = "logPacidic = 2.93"

[[record]]
compound = "COC(=O)c1ccc(S(C)(=O)=O)c(CN(OC)C(=O)C(F)(F)F)c1Cl"
observed = "logPacidic = 2.60"

[[record]]
compound = "COC(=O)c1ccc(S(C)(=O)=O)c(CNOC2CCCC2)c1Cl"
observed = "logPacidic = 2.93"

[[record]]
compound = "CCON(Cc1c(S(C)(=O)=O)ccc(C(=O)OC)c1Cl)CC1CCOC1 (centres unmarked)"
observed = "logPacidic = 2.60"


====

Assay: log P determination by reversed-phase HPLC (EEC Directive 79/831 Annex V.A8; acidic or neutral mobile phase)
Assay type: physicochemical
Conditions: HPLC reversed-phase C18, 43° C.; acidic range: 0.1% aqueous phosphoric acid, acetonitrile gradient (marked a))
measured_parameter: logP

[[record]]
molecule = "CCONCc1c(Cl)ccc(C(=O)c2cnn(CC)c2O)c1Cl [Example 134]"
observed = "logP = 2.07^a)"

[[record]]
molecule = "CCn1ncc(C(=O)c2ccc(Cl)c(OCCNS(=O)(=O)C(C)C)c2Cl)c1O [Example 24]"
observed = "logP = 2.07^a)"

